measurement protocol: Metabolic stability in human liver microsomes assessed as half life during phase 1 at 0.5 uM by LC-MS/MS analysis in presence of 3 mM NADPH and absence of UDPGA
Format: ADME
reported conditions: read-out: alphat1/2
value kind: half-life at 0.5 µM

Q: // Input: "COc1cc(C(=O)c2cccc(-c3cc4ccccc4[nH]3)c2)cc(OC)c1OC" . Output its half-life at 0.5 µM only.
Result: 24 min

---

measurement protocol: Tmax in ICR mouse at 5 mg/kg, ip by LC-MS/MS analysis
Assay type: ADME, organism-based
Parameters: dose 5 mg/kg, route intraperitoneal
reported conditions: in vivo
value kind: Tmax (min)
Reply with just the number (in min).

Q: Output Tmax of "COc1cc(C(=O)c2cccc(-c3cc4ccccc4[nH]3)c2)cc(OC)c1OC"
Result: 5
